The values you see were collected from ChEMBL document CHEMBL3217419.

Hi there, I'd appreciate the recorded Ratio EC50 for every entry that follows.
- Tested on: CHO
- test-name: Selectivity ratio of EC50 for human alpha2 integrin expressed in CHO cells binding to collagen IV to EC50 for human alpha1 integrin expressed in CHO cells binding to collagen I
- Type: cell-based
Answer field: number only, no words.

What value of measured Ratio EC50 is listed for O=C(c1ccccc1)c1ccc(OS(=O)(=O)c2cc(Cl)cc(Cl)c2O)cc1 ?
2.8

What value of measured Ratio EC50 is listed for O=C(c1ccccc1)c1cccc(NS(=O)(=O)c2ccc(Cl)cc2Cl)c1 ?
3

What value of measured Ratio EC50 is listed for O=C(c1ccccc1)c1cccc(NS(=O)(=O)c2ccc(Br)cc2)c1 ?
2.2

What value of measured Ratio EC50 is listed for O=C(c1ccccc1)c1ccc(NS(=O)(=O)c2ccc(Cl)cc2Cl)cc1 ?
1.5

What value of measured Ratio EC50 is listed for O=S(=O)(Nc1ccc2c(c1)Cc1ccccc1-2)c1ccc(Cl)cc1Cl ?
0.8

What value of measured Ratio EC50 is listed for O=C1c2ccccc2-c2ccc(NS(=O)(=O)c3ccc(Cl)cc3Cl)cc21 ?
1.2

What value of measured Ratio EC50 is listed for O=C(c1ccccc1)c1ccc(NS(=O)(=O)c2ccc(I)cc2)cc1 ?
1.3

---

- measurement-target: Integrin alpha-1 (Homo sapiens) (UniProt P56199)
- Sequence (P56199 whole entry): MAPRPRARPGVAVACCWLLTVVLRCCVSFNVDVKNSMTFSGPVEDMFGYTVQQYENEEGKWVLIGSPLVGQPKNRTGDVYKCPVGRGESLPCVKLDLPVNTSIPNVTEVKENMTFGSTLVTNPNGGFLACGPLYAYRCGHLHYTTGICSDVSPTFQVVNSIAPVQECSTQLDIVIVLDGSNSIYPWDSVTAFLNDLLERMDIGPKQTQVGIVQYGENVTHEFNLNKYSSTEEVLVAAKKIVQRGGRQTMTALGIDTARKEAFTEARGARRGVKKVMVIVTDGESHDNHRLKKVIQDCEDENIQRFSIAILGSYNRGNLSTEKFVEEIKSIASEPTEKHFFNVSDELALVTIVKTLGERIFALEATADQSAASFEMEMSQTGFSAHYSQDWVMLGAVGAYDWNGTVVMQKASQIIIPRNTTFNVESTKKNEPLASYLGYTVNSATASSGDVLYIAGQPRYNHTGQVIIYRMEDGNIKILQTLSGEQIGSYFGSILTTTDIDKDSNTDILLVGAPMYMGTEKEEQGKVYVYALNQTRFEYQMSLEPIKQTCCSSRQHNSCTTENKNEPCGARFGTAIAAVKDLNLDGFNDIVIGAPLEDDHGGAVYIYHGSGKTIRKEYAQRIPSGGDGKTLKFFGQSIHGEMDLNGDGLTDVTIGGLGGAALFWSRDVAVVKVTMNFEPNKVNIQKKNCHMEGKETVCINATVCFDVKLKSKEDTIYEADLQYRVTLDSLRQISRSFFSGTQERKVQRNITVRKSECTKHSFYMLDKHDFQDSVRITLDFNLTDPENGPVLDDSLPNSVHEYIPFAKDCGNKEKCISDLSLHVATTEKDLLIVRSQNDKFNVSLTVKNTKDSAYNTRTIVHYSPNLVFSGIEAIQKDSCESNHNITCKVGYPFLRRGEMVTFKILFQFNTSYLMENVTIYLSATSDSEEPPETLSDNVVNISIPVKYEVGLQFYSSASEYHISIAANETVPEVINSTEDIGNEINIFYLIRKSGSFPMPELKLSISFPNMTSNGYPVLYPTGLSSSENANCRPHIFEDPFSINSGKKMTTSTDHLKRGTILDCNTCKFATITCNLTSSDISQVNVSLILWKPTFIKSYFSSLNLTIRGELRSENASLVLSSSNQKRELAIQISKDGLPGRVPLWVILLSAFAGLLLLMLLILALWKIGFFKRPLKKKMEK
- test-name: Inhibition of human alpha1 integrin expressed in CHO cells binding to collagen I at 100 uM after 2 hrs by cell-adhesion-based WST-1 assay relative to control
measurement-name: Imax (%)
Unit % implied. Number only.

What value of measured Imax is listed for Cc1ccc(S(=O)(=O)Nc2cccc(C(=O)c3ccccc3)c2)cc1 ?
34

What value of measured Imax is listed for O=C(c1ccccc1)c1ccc(NS(=O)(=O)c2ccc(Cl)cc2Cl)cc1 ?
82

What value of measured Imax is listed for O=C(c1ccccc1)c1cccc(NS(=O)(=O)c2ccc(I)cc2)c1 ?
72

What value of measured Imax is listed for O=C(c1ccccc1)c1cccc(NS(=O)(=O)c2ccc(Cl)cc2Cl)c1 ?
69

What value of measured Imax is listed for O=C(c1ccccc1)c1ccc(NS(=O)(=O)c2ccc(I)cc2)cc1 ?
85

What value of measured Imax is listed for O=S(=O)(Nc1ccc2c(c1)Cc1ccccc1-2)c1ccc(Cl)cc1Cl ?
87

What value of measured Imax is listed for O=C1c2ccccc2-c2ccc(NS(=O)(=O)c3ccc(Cl)cc3Cl)cc21 ?
93

What value of measured Imax is listed for O=C(c1ccccc1)c1ccc(NS(=O)(=O)c2ccc(Br)cc2)cc1 ?
34

What value of measured Imax is listed for Cc1ccc(S(=O)(=O)Nc2ccc(C(=O)c3ccccc3)cc2)cc1 ?
35

What value of measured Imax is listed for O=C(c1ccccc1)c1ccc(OS(=O)(=O)c2cc(Cl)cc(Cl)c2O)cc1 ?
95

What value of measured Imax is listed for O=C(c1ccccc1)c1cccc(NS(=O)(=O)c2ccc(Br)cc2)c1 ?
96

---

- Test system: CHO
- test-name: Cytotoxicity against CHO cells assessed as release of lactate dehydrogenase by resazurin assay
- Format: cell-based, Cricetulus griseus
- particulars: chinese hamster
measurement-name: Activity

Examples from the recorded data:
structure-smiles-string | measurement-target | measurement-name | observed
O=C(c1ccccc1)c1ccc(NS(=O)(=O)c2ccccc2)cc1 | CHO | Activity | <= 200 uM
O=C(c1ccccc1)c1ccc(NS(=O)(=O)c2ccc(Br)cc2)cc1 | CHO | Activity | <= 200 uM
Cc1ccc(S(=O)(=O)Nc2cccc(C(=O)c3ccccc3)c2)cc1 | CHO | Activity | <= 200 uM
O=C(c1ccccc1)c1cccc(NS(=O)(=O)c2ccc(I)cc2)c1 | CHO | Activity | <= 200 uM

Could you share what Activity was measured for O=C(c1ccccc1)c1cccc(NS(=O)(=O)c2ccccc2)c1 , tested on CHO?
<= 200 uM

Could you share what Activity was measured for O=C1c2ccccc2-c2ccc(NS(=O)(=O)c3ccc(Cl)cc3Cl)cc21 , tested on CHO?
<= 200 uM

Could you share what Activity was measured for O=S(=O)(Nc1ccc2c(c1)Cc1ccccc1-2)c1ccc(Cl)cc1Cl , tested on CHO?
<= 200 uM

Could you share what Activity was measured for Cc1ccc(S(=O)(=O)Nc2ccc(C(=O)c3ccccc3)cc2)cc1 , tested on CHO?
<= 200 uM

Could you share what Activity was measured for O=C(c1ccccc1)c1cccc(NS(=O)(=O)c2ccc(Br)cc2)c1 , tested on CHO?
<= 200 uM

Could you share what Activity was measured for O=C(c1ccccc1)c1ccc(NS(=O)(=O)c2ccc(I)cc2)cc1 , tested on CHO?
<= 200 uM

Could you share what Activity was measured for O=C(c1ccccc1)c1cccc(NS(=O)(=O)c2ccc(Cl)cc2Cl)c1 , tested on CHO?
<= 200 uM
